Values from patent US7091202B2

Assayed Target: hQ23 (HEK-293 cell line stably transfected with one of the members of the KCNQ family) (Homo sapiens, UniProt O43525+O43526)
Construct: expressed in transfected cells; host or cells: HEK-293, stably transfected
Sequence (O43526 whole entry): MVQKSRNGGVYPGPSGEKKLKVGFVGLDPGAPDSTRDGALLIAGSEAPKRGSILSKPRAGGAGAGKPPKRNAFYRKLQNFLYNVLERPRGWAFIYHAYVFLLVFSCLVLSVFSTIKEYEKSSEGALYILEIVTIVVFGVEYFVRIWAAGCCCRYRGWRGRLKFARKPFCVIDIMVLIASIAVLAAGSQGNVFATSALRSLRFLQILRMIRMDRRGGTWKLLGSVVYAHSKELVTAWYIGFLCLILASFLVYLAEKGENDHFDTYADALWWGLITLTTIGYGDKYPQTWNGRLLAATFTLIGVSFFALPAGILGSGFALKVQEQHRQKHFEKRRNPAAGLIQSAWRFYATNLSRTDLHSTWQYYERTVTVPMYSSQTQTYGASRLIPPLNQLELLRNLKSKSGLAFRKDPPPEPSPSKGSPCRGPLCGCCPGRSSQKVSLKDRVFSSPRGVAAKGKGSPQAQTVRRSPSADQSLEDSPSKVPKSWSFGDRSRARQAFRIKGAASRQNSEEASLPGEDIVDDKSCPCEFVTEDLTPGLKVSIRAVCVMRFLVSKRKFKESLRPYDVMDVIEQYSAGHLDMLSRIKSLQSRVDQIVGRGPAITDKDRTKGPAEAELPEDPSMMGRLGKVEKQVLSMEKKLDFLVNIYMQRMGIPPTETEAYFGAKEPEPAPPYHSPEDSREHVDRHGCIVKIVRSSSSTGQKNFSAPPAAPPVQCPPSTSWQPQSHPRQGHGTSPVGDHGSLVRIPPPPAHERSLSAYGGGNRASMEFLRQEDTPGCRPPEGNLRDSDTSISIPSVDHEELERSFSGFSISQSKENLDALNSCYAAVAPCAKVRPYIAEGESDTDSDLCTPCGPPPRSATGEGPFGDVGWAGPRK
Sequence (O43525 whole entry): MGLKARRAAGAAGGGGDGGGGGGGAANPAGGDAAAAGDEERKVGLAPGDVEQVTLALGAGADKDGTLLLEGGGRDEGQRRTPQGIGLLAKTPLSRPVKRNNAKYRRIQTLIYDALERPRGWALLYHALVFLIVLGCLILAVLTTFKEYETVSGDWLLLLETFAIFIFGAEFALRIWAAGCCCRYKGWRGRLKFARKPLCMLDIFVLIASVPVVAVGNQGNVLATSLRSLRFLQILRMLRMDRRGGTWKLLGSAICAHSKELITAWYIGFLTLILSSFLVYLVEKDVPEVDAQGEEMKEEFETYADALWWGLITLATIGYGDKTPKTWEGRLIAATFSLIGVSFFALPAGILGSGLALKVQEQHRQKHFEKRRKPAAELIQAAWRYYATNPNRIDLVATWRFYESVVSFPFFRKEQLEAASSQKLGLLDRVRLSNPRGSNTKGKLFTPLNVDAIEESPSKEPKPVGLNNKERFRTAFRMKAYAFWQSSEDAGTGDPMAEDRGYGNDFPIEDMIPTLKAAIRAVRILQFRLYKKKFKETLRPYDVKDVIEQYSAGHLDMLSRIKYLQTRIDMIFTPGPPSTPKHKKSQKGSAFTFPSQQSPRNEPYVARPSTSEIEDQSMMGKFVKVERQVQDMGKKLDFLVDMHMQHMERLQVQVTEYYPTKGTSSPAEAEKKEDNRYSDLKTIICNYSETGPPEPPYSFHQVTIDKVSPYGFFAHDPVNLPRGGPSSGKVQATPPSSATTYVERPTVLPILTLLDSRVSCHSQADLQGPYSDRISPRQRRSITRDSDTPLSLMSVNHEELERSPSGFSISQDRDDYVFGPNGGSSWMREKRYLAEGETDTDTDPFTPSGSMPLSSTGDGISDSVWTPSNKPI
Test Method Notes: Thallium flux assay for KCNQ channel blockers (FLIPR, BTC dye)
Type: cell-based
Measurement Setup: hQ23 cells, thallium flux assay
Experimental Endpoint: EC50 (µM)

These recorded examples may help you get a feel for the data.
O=C(NCc1cc(F)cc(C(F)(F)F)c1)c1cnc(NC2CCCC2)nc1C1(c2ccc(F)cc2)CCCC1 | 0.06
CC1CCCN(c2ncc(C(=O)NC(C)c3ccc(F)cc3)c(C3(c4ccc(F)cc4)CCCC3)n2)C1 (stereo not shown) | 0.078

a. CC(NC(=O)c1cnc(NC2CCCC2)nc1C1(c2ccc(F)cc2)CCCC1)c1ccc(F)cc1 (stereo not shown)
b. CCC(C)Nc1ncc(C(=O)NCc2cc(F)cc(C(F)(F)F)c2)c(C2(c3ccc(F)cc3)CCCC2)n1 (stereo not shown)
c. CCC(C)Nc1ncc(C(=O)NCc2ccc(Cl)cc2Cl)c(C2(c3ccc(F)cc3)CCCC2)n1 (stereo not shown)
d. CN1CCN(c2ncc(C(=O)NCc3cc(F)cc(C(F)(F)F)c3)c(C3(c4ccc(F)cc4)CCCC3)n2)CC1
e. CC1CCN(c2ncc(C(=O)NC(C)c3ccc(F)cc3)c(C3(c4ccc(F)cc4)CCCC3)n2)CC1 (stereo not shown)
// query List the 5 entries from lowest EC50 to highest EC50 value. Record the ranking as a list of labels in the requested order.
// result b, e, c, d, a
